# Assay: toxin-induced degeneration of sympathetic neurons (MTT assay)
# Type: cell-based
# Measurement Context: Sprague-Dawley, rat, primary sympathetic neurons from cervical ganglia, 24 hour vincristine, read-out: % viability (normalized)
Endpoint: viability at 24 h (%)
Give your result in % as a bare value.

*Q* Reported viability at 24 h for CC[C@]1(O)C[C@H]2CN(CCc3c([nH]c4ccccc34)[C@@](C(=O)OC)(c3cc4c(cc3OC)N(C=O)[C@H]3[C@@](O)(C(=O)OC)[C@H](OC(C)=O)[C@]5(CC)C=CCN6CC[C@]43[C@@H]65)C2)C1 [vincristine] : what is it?
*A* 28

----------
# Assay: vincristine challenge of cortical neurons, viability assay
# Type: cell-based
# Measurement Context: rat, primary E18 cortical neurons; 12 hour vincristine (300 nM); read-out: % Viability (normalized)
Endpoint: viability at 12 h, 0.3 µM (%)
# output: bare number, implied unit %

*Q* Entry CC[C@]1(O)C[C@H]2CN(CCc3c([nH]c4ccccc34)[C@@](C(=O)OC)(c3cc4c(cc3OC)N(C=O)[C@H]3[C@@](O)(C(=O)OC)[C@H](OC(C)=O)[C@]5(CC)C=CCN6CC[C@]43[C@@H]65)C2)C1 has what viability at 12 h, 0.3 µM?
*A* 77

----------
# Tested on: DRG neurons (axon vs. cell body compartment)
# Assay: Campenot chamber local axon degeneration (anti-NGF in axon compartment)
# Assay type: cell-based, mouse
# Measurement Context: inhibitor 5 μM in cell body compartment
Endpoint: Cell Body Compartment (protection of NGF-deprived axons)

INSERT INTO results (compound, observed_result) VALUES
  ('COc1nccc(-c2c(-c3ccc(F)cc3)ncn2C2CCC(O)CC2)n1 (centres unmarked) [SB239063]', 'No (1)'),
  ('C=CC(=O)Nc1ccc2ncnc(Nc3cccc(Br)c3)c2c1 [PD168393]', 'No (1)');

Recorded values, source patent US20140328940A1.
